# ASSAYED_SYSTEM: T1, human IL-17A (human, UniProt Q16552 24-155)
# T1 construct: Biotinylated in the ELISA; also called hIL-17; Hu IL-17A
# T1 sequence (Q16552 24-155 limits assumed): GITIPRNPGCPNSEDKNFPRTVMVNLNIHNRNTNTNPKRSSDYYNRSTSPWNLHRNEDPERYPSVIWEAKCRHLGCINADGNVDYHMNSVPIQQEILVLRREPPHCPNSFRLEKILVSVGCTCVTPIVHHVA
# ASSAY_PROTOCOL: ELISA, captured antibody, serially diluted biotin-IL-17 (Example 1.5.1)
READOUT_TYPE: EC50
Answer with the figure and its unit, nothing else.

Value lookup for EC50; key = IL17-TN-K7-B6 (antibody, V domains shown, Fully human monoclonal antibody from mRNA display) VH: EVQLVQSGAEVKKPGESLKISCKASGGSFRSYGISWVRQAPGQGLEWMGGITPILGTANYAQKFQGRVTITADESTTTAYMELSGLTSDDTAVYYCAREPNDFWNGYYTTHHFDYWGQGTPVTVSS VL: DVVMTQSPDFQSVTPKEKVTITCRASQNIGSALHWYQQKPDQSPKLLIKYASQSISGVPSRFSGSGSGTDFTLTINGLEAEDAGTYYCHQSTSLPHTFGQGTKLDIKR
0.447 nM

Value lookup for EC50; key = IL17-TN-L7-C8 (antibody, V domains shown, Fully human monoclonal antibody from mRNA display; also called IL-TN-L7-C8) VH: EVQLVQSGAEVKKPGASVKVSCKASGYTFSDFDIDWVRQATGLGLEWMGWMNPNSGNTGVAPKFRGRVSMTFNTAIRTAYLELSSLRPDDTAVYFCARSSESEGITIGFDNWGQGTLVTVSS VL: SYELTQPPSVSVSPGQTASIPCSGDKLGNRYACWYKQKPGQPPVLVIYQDNKRPSGISERYSGSNYGDTATLTITGTQAMDEADYYCQTWDSTTGSYVFGTGTKVTVLG
0.517 nM
